System: DU-4475
Assay: normalised response (% of control), CellTiter-Glo; higher = more viable cells (100 = DMSO, 0 = benzethonium chloride kill control)
Conditions: incubation time: 72 h
measured parameter: normalised response (%)
Numbers only, in %.

Please review the following examples before continuing.
Cc1ccc(Nc2nccc(N(C)c3ccc4c(C)n(C)nc4c3)n2)cc1S(N)(=O)=O [Pazopanib] (1000 nM) | 104
CCCCC/C=C/C=C1/C(=O)C=C[C@@H]1C/C=C\CCCC(=O)O [15D-PGJ2] (0.08 nM) | 96.6
O=C(Nc1c[nH]nc1-c1nc2ccc(CN3CCOCC3)cc2[nH]1)NC1CC1 [AT9283] (100 nM) | 88.9
Cn1cc(CNCC2CCN(c3ncc(C(=O)NO)cn3)CC2)c2ccccc21 [Quisinostat] (100 nM) | 23.2
CC[C@@]1(O)C(=O)OCc2c1cc1n(c2=O)Cc2cc3c(CN(C)C)c(O)ccc3nc2-1 [Topotecan] (1000 nM) | 38.4
COc1cc(CCc2cc(NC(=O)c3ccc(N4CC(C)NC(C)C4)cc3)n[nH]2)cc(OC)c1 (stereo not drawn) [AZD4547] (1 nM) | 94.6
O=C(Nc1c[nH]nc1-c1nc2ccc(CN3CCOCC3)cc2[nH]1)NC1CC1 [AT9283] (1 nM) | 102

Observed normalised response, DU-4475, O=C(Nc1c[nH]nc1-c1nc2ccc(CN3CCOCC3)cc2[nH]1)NC1CC1 [AT9283] (0.1 nM) : 101
